Assay: Novel Modifiers of Survival Motor Neuron (SMN) Protein: Gene Identification via Genome-wide siRNA Screen;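 also: luminescence tracks full-length SMN protein made from the SMN2 reporter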
Settings: HEK293T SMN2-luciferase reporter, siRNA knockdown, 72 h; actives lie on both sides
Among all 31,000 sequences or so, about 1,400 (4.5%) were called active.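 The calls were made as follows: active = median seed-adjusted z-score above 1 or below -1; inactive = the rest.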 The entries come from a sample that favours actives as a whole.
Possible outcomes: active, inactive

>>> label_class("GAUCGACUGCUAGAGAGUATT against DCLK1")
"inactive"
>>> label_class("GGAACUUACGAUGCAGGAATT against GALNT13")
"inactive"
>>> label_class("GGAAGAACAUGACAACCAATT against IFIT1")
"inactive"
>>> label_class("CCAUUAACCACAUACCAGATT against TLR7")
"inactive"
>>> label_class("GAAUUCGCUUCAUCCAUUUTT against POMT2")
"inactive"
>>> label_class("GGUGGAUGGUAAUAAGGAATT against CTPS2")
"active"
>>> label_class("GGUGAAUAUUUAUCGUCUATT against CHD1")
"active"
>>> label_class("CUCUUUGACGUGUCUCAUATT against AMT")
"inactive"
>>> label_class("GCUCCAAUGUCUACAGAAATT against MRGPRE")
"inactive"
>>> label_class("GGGAAGAUCCUGUACAUCUTT against PER2")
"inactive"
>>> label_class("CAACAAGCGUAAGACCAAATT against SYTL5")
"inactive"
>>> label_class("CAGCCUACUUCAUAGCCUATT against GPR50")
"inactive"
>>> label_class("AGUCCUCUAUCAACCUCUUTT against RXFP3")
"inactive"
>>> label_class("GGUUGCUAUCAAUACCCUUTT against SLC22A18")
"inactive"
>>> label_class("GCAUGAACUGAAACCCAAUTT against SMURF1")
"active"
>>> label_class("GGAUUUUACAGGAUAUCUUTT against SPPL2A")
"inactive"
>>> label_class("GCUCCUUGCUACCAUAGUATT against CCBP2")
"inactive"
>>> label_class("GGCUUCACCUAAAAACGUATT against BRCA2")
"inactive"
>>> label_class("GAGUAUCCAUCGGUAUCUATT against ZBTB11")
"inactive"
>>> label_class("GGUUCAUACAGACUCUUAUTT against PJA2")
"inactive"
>>> label_class("CUUUCUAGCAGUCACCAUATT against CIR")
"inactive"
>>> label_class("CAUCAAAGAUUGCACUUCATT against TOMM34")
"inactive"
>>> label_class("CAUCCAGCAUACAAAAGAATT against FCRL3")
"inactive"
>>> label_class("GCAGCUGCCGGAAAUGUUATT against KRT81")
"inactive"
>>> label_class("AGAUGUACCUAUGUCAAGATT against OVOL1")
"inactive"
>>> label_class("CCGUAAAGCUGCAUUAGAATT against CUGBP1")
"inactive"
>>> label_class("UGAUGAACUCGGAAAUGCATT against PPAPDC1A")
"inactive"
>>> label_class("CCACGAUCGUUCACAAGGATT against KCTD4")
"inactive"
>>> label_class("UCGAGCAACUUAUUCCAUATT against MED30")
"active"
>>> label_class("GGGAGAGUGGUGAACGUAUTT against CBR1")
"inactive"
>>> label_class("GAAACCAUCCAAUCCAAGATT against TXNDC2")
"active"
